Values compiled from patent EP4722219A1.

Target: AR protein (Homo sapiens, UniProt P10275)
Construct: host or cells: VCaP
Sequence (P10275 1-920): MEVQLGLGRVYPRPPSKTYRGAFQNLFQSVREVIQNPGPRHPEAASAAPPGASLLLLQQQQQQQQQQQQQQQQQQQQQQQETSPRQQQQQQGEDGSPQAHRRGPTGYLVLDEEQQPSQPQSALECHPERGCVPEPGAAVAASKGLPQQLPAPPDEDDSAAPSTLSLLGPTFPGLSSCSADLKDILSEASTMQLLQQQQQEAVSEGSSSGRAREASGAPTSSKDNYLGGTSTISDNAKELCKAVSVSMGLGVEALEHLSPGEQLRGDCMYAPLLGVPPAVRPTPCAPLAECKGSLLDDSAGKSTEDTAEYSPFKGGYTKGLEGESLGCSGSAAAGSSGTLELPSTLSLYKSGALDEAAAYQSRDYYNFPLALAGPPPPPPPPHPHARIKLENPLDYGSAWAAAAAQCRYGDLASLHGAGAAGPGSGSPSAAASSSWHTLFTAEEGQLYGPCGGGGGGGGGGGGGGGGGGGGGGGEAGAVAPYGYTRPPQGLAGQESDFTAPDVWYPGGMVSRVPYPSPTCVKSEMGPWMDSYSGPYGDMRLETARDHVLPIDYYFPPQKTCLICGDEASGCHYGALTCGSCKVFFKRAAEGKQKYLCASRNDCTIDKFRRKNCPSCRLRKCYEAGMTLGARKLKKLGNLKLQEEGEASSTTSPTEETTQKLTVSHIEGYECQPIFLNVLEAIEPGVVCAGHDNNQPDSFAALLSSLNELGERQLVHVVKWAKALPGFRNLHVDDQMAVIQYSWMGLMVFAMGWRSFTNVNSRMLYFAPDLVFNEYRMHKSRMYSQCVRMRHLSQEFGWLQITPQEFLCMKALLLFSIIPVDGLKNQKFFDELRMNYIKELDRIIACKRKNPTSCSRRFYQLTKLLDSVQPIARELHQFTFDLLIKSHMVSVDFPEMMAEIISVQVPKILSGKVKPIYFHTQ
Test: AR protein degradation in VCaP cells (Western blot)
Type: cell-based
Conditions: 0.5 nM, 8h
We label by threshold. Values of AR protein degradation rate at fixed concentration (%) at 0.0005 µM strictly beneath 50% are Criterion met. Values of 50% and up are Criterion not met.

[[record]]
compound = "COc1cc(O[C@H]2CC[C@H](NC(=O)c3ccc(N4CCC(CN5CCC6(CC5)COc5c6ccc6c5n(C)c(=O)n6C5CCC(=O)NC5=O)CC4)nn3)CC2)ccc1C#N (some centres unmarked)"
experimental_system = "AR protein (Homo sapiens, UniProt P10275)"
assigned_label = "Criterion not met"

[[record]]
compound = "COc1cc(O[C@H]2C(C)(C)[C@H](NC(=O)c3ccc(N4CCC(CN5CCC6(CC5)COc5c6ccc6c5n(C)c(=O)n6C5CCC(=O)NC5=O)CC4)cc3)C2(C)C)ccc1C#N (some centres unmarked)"
experimental_system = "AR protein (Homo sapiens, UniProt P10275)"
assigned_label = "Criterion not met"

[[record]]
compound = "C[C@H]1CC2(CCN(c3ccc(C(=O)N4CCC(CN5CCC6(CCc7cc(C(=O)N[C@H]8CCC(=O)NC8=O)c(F)cc7O6)CC5)CC4)cc3)CC2)CN1c1ccc(C#N)c(Cl)c1"
experimental_system = "AR protein (Homo sapiens, UniProt P10275)"
assigned_label = "Criterion met"

[[record]]
compound = "C[C@H]1CC2(CCN(c3ccc(N4CCC(CN5CCC6(CCc7cc(C(=O)N[C@H]8CCC(=O)NC8=O)c(F)cc7O6)CC5)CC4)cc3)CC2)CN1c1ccc(C#N)c(Cl)c1"
experimental_system = "AR protein (Homo sapiens, UniProt P10275)"
assigned_label = "Criterion met"

